# Test system: pigweed
# method.notes: Test A preemergence
# Assay type: in vivo, Amaranthus retroflexus
# assay.setup: Preemergence, 500 g ai/ha; 0 to 100 scale, 0 no effect, 100 complete control

{"molecule": "CCc1cc(C(=O)NC2CC2)nn1Cc1ccnc(C(F)(F)F)c1 [Compound 76]", "Pigweed plant response rating": 100}
{"molecule": "CCCCNC(=O)c1cc(C)n(Oc2ccnc(C(F)(F)F)c2)n1 [Compound 85]", "Pigweed plant response rating": 0}
{"molecule": "CCONC(=O)c1cc(CC)n(Cc2ccnc(C(F)(F)F)c2)n1 [Compound 77]", "Pigweed plant response rating": 100}
{"molecule": "CCCNC(=O)c1cc(CC)n(Oc2ccnc(C(F)(F)F)c2)n1 [Compound 82]", "Pigweed plant response rating": 60}

---

# Test system: pigweed
# method.notes: Test C postemergence
# Assay type: in vivo, Amaranthus retroflexus
# assay.setup: postemergence, 62 g ai/ha; scale 0 to 100
Rule: 1 for Pigweed plant response rating not less than 60, 0 for anything less.

{"smiles.repr": "CCCc1cc(C(=O)NC2CC2)nn1Cc1cc(C(F)(F)F)nn1C", "answer.label": 1}
{"smiles.repr": "Cc1cc(C(=O)NCC(F)(F)F)nn1Cc1ccnc(C(F)(F)F)c1", "answer.label": 1}
{"smiles.repr": "CCCc1cc(C(=O)NCC(F)(F)F)nn1Cc1ccnc(OC(F)F)c1", "answer.label": 1}
{"smiles.repr": "CCOc1cc(C(=O)NOC(C)C)nn1Cc1ccnc(C(F)(F)F)c1", "answer.label": 0}
{"smiles.repr": "CCCc1cc(C(=O)NC2CC2)nn1Cc1ccnc(OC(F)F)c1", "answer.label": 1}

---

As shown below, each of these molecules has a reported Plant response rating, Soybean value.
# Tested on: soybean
# method.notes: Test C postemergence
# Format: in vivo, Glycine max
# assay.setup: postemergence, 250 g ai/ha; scale 0 to 100 (0 no effect, 100 complete control)
assay.endpoint: Plant response rating, Soybean

{"molecule": "CCOc1cc(C(=O)NCC(F)(F)F)nn1Cc1ccnc(OC(F)F)c1 [Compound 128]", "data.value": 98}
{"molecule": "CCc1cc(C(=O)NCC(F)(F)F)nn1Cc1cccc(OC(F)(F)F)c1 [Compound 20]", "data.value": 75}
{"molecule": "CCc1cc(C(=O)NOC(C)C)nn1Cc1ccnc(OC(F)F)c1 [Compound 126]", "data.value": 65}
{"molecule": "CCc1cc(C(=O)NC2CC2)nn1Cc1ccnc(Br)c1 [Compound 220]", "data.value": 75}
{"molecule": "CCc1cc(C(=O)NC2CC2)nn1Cc1ccnc(C(F)(F)F)c1 [Compound 76]", "data.value": 98}
{"molecule": "CCCc1cc(C(=O)NC(C)C)nn1Cc1ccnc(C(F)(F)F)c1 [Compound 186]", "data.value": 95}
{"molecule": "CCc1cc(C(=O)NCC(F)(F)F)nn1Cc1ccnc(Br)c1 [Compound 224]", "data.value": 60}
{"molecule": "CCc1cc(-c2ccc(C(F)(F)F)cc2)nn1Cc1ccnc(C(F)(F)F)c1 [Compound 110]", "data.value": 85}

---

# System: crabgrass, large
# method.notes: Test C preemergence
# Assay type: in vivo, Digitaria sanguinalis
# assay.setup: preemergence, 62 g ai/ha; scale 0 to 100 (0 no effect, 100 complete control), 13 to 15 days
assay.endpoint: Crabgrass, Large plant response rating

{"compound": "CCCNC(=O)c1cc(CC)n(Cc2nc(C(F)(F)F)nn2C)n1 [Compound 109]", "system.tested": "crabgrass, large", "data.value": 100}
{"compound": "CCCc1cc(C(=O)NC2CC2)nn1Cc1ccnc(OC(F)F)c1 [Compound 205]", "system.tested": "crabgrass, large", "data.value": 100}
{"compound": "CCNC(=O)c1cc(CCF)n(Cc2ccnc(C(F)(F)F)c2)n1 [Compound 178]", "system.tested": "crabgrass, large", "data.value": 95}
{"compound": "CCc1cc(C(=O)NOC(C)C)nn1Cc1ccnc(OC(F)F)c1 [Compound 126]", "system.tested": "crabgrass, large", "data.value": 100}
{"compound": "CCOc1cc(C(=O)NCC(F)(F)F)nn1Cc1ccnc(OC(F)F)c1 [Compound 128]", "system.tested": "crabgrass, large", "data.value": 95}
{"compound": "CCCc1cc(C(=O)NC(C)C)nn1Cc1cc(C(F)(F)F)nn1C [Compound 201]", "system.tested": "crabgrass, large", "data.value": 100}

---

# Tested on: blackgrass
# method.notes: Test C preemergence
# Assay type: in vivo, Alopecurus myosuroides
# assay.setup: preemergence, 31 g ai/ha; visual rating, scale 0 to 100 (0 no effect, 100 complete control), 13 to 15 days
# Excerpt: […]
Mark each entry yes if its Blackgrass plant response rating sits below 30, and no for all others.

{"molecule": "CCCNC(=O)c1cc(CCF)n(Cc2ccnc(C(F)(F)F)c2)n1 [Compound 177]", "answer.label": "no"}
{"molecule": "CCc1cc(C(=O)NC2CC2)nn1Cc1ccnc(Br)c1 [Compound 220]", "answer.label": "yes"}
{"molecule": "CCCc1cc(C(=O)NC(C)C)nn1Cc1cc(C(F)(F)F)nn1C [Compound 201]", "answer.label": "no"}
{"molecule": "CCONC(=O)c1cc(CC)n(Cc2ccnc(OC(F)F)c2)n1 [Compound 131]", "answer.label": "no"}

---

Examples of compounds with documented Barnyardgrass plant response rating follow.
# System: barnyardgrass
# method.notes: Test C preemergence
# Format: in vivo, Echinochloa crus-galli
# assay.setup: preemergence, 62 g ai/ha; scale 0 to 100 (0 no effect, 100 complete control), 13 to 15 days
assay.endpoint: Barnyardgrass plant response rating

{"compound": "CCc1cc(C(=O)NCC(F)(F)F)nn1Cc1nc(C(F)(F)F)nn1C [Compound 107]", "assay.endpoint": "Barnyardgrass plant response rating", "data.value": 100}
{"compound": "O=C(NC1CC1)c1cc(CCCl)n(Cc2ccnc(C(F)(F)F)c2)n1 [Compound 144]", "assay.endpoint": "Barnyardgrass plant response rating", "data.value": 98}
{"compound": "CCCc1cc(C(=O)NCC(F)(F)F)nn1Cc1ccnc(OC(F)F)c1 [Compound 127]", "assay.endpoint": "Barnyardgrass plant response rating", "data.value": 60}
{"compound": "CCc1cc(-c2ccc(C(F)(F)F)cc2)nn1Cc1ccnc(C(F)(F)F)c1 [Compound 110]", "assay.endpoint": "Barnyardgrass plant response rating", "data.value": 30}

---

Here, each record is paired with measured Corn plant response rating data.
# System: corn
# method.notes: Test A postemergence
# Type: in vivo, Zea mays
# assay.setup: postemergence, 125 g ai/ha, about 10 days, visual rating on 0 to 100 scale (0 no effect, 100 complete control)
# From the text: […]
assay.endpoint: Corn plant response rating

{"compound": "CCc1cc(C(=O)NCC(F)(F)F)nn1Cc1cc(C(F)(F)F)no1 [Compound 123]", "system.tested": "corn", "assay.endpoint": "Corn plant response rating", "data.value": 20}
{"compound": "CCc1cc(C(=O)NCC(F)(F)F)nn1Cc1nc(C(F)(F)F)no1 [Compound 184]", "system.tested": "corn", "assay.endpoint": "Corn plant response rating", "data.value": 0}
{"compound": "CCONC(=O)c1cc(CC)n(Cc2ccnc(OC(F)F)c2)n1 [Compound 131]", "system.tested": "corn", "assay.endpoint": "Corn plant response rating", "data.value": 80}
{"compound": "CCONC(=O)c1cc(CC)n(Cc2cc(OC(F)F)nn2C)n1 [Compound 207]", "system.tested": "corn", "assay.endpoint": "Corn plant response rating", "data.value": 30}
{"compound": "CCc1cc(C(=O)Nc2ccc(F)cc2)nn1Oc1ccnc(C(F)(F)F)c1 [Compound 89]", "system.tested": "corn", "assay.endpoint": "Corn plant response rating", "data.value": 0}
{"compound": "CCOc1cc(C(=O)NOC(C)C)nn1Cc1ccnc(C(F)(F)F)c1 [Compound 153]", "system.tested": "corn", "assay.endpoint": "Corn plant response rating", "data.value": 90}
{"compound": "O=C(NC1CC1)c1cc(CCCl)n(Cc2ccnc(C(F)(F)F)c2)n1 [Compound 144]", "system.tested": "corn", "assay.endpoint": "Corn plant response rating", "data.value": 50}
{"compound": "CCCNC(=O)c1cc(CC)n(Oc2ccnc(C(F)(F)F)c2)n1 [Compound 82]", "system.tested": "corn", "assay.endpoint": "Corn plant response rating", "data.value": 20}
{"compound": "Cc1cc(C(=O)Nc2ccc(F)cc2)nn1Oc1ccnc(C(F)(F)F)c1 [Compound 90]", "system.tested": "corn", "assay.endpoint": "Corn plant response rating", "data.value": 0}

---

# Test system: nutsedge, yellow
# method.notes: Test C postemergence
# Format: in vivo, Cyperus esculentus
# assay.setup: postemergence; 125 g ai/ha; scale 0 to 100, 0 no effect, 100 complete control
Plant response rating, Nutsedge, Yellow overview
assay.endpoint: Plant response rating, Nutsedge, Yellow

{"smiles.repr": "CCOc1cc(C(=O)NCC(F)(F)F)nn1Cc1ccnc(OC(F)F)c1", "data.value": 10}
{"smiles.repr": "CCCNC(=O)c1cc(CC)n(Cc2cccc(OC(F)(F)F)c2)n1", "data.value": 0}
{"smiles.repr": "CCONC(=O)c1cc(CC)n(Cc2cccc(OC(F)(F)F)c2)n1", "data.value": 0}
{"smiles.repr": "Cc1cc(C(=O)NCC(F)(F)F)nn1Cc1ccnc(C(F)(F)F)c1", "data.value": 5}
{"smiles.repr": "CCCc1cc(C(=O)NCC(F)(F)F)nn1Cc1ccnc(OC(F)F)c1", "data.value": 15}
{"smiles.repr": "CCCNC(=O)c1cc(CC)n(Cc2nc(C(F)(F)F)nn2C)n1", "data.value": 5}
{"smiles.repr": "CCc1cc(C(=O)NCC(F)(F)F)nn1Cc1ccnc(Br)c1", "data.value": 5}
{"smiles.repr": "CCc1cc(C(=O)NCC(F)(F)F)nn1Cc1nc(C(F)(F)F)nn1C", "data.value": 5}
{"smiles.repr": "CCc1cc(C(=O)NOC(C)C)nn1Cc1ccnc(OC(F)F)c1", "data.value": 5}

Provenance of the data: patent US20150105252A1
